Tested on: NCI-H322M lung
Assay: NCI-60 one-dose screen, 48 h (100 = growth as untreated, 0 = no growth, -100 = all killed)
Details: 10 µM unless noted
The panel holds about 83,000 compounds, 20% with a hit somewhere; the sample as a whole holds those more often. The source made the active and inactive calls. Rule for the calls: active = growth percent below 10; inactive = the rest.
property: growth

c1ccc(-c2cc3n4c(-c5ccccc5)nn(-c5ccccc5)c4cnc-3n2)cc1 ... 23.6% (inactive)

Give the measured growth of CC1=CC(=NN=c2cc(C)n([O-])c(C)c2)C=C(C)[N+]1=O .
114% (inactive)

For COc1ccccc1Nc1nc(-c2cc3cccc(C(F)(F)F)c3oc2=O)cs1 , what is its reported growth?
33% (inactive)

Name the reported growth value associated with the compound CC(=O)O[C@H]1CC[C@]2(C)[C@H]3CC=C4[C@@H]5CC(C)(C)CC[C@]5(C(=O)NCCNCCNCCN)CC[C@@]4(C)[C@]3(C)CC[C@H]2C1(C)C
95.2% (inactive)

# query: growth of entry Cn1ncc2c(=O)nc3c(-c4ccccc4)n[nH]n3c21
80.9% (inactive)

Record request: growth value, item O=c1oc2c(C(F)(F)F)cccc2cc1-c1csc(Nc2ccc(OCCF)cc2)n1
31% (inactive)

Dear colleague, I am looking for the recorded growth of the following compound: CN1CCN(c2nc(NCCCNc3ccnc4cc(Cl)ccc34)c3ccccc3n2)CC1
64.3% (inactive)

Need growth of CCc1c(Nc2ccccc2C)nc(N)[nH]c1=O , thanks.
103% (inactive)

So what's the measured growth for this one? C=C1C(=O)O[C@H]2[C@H]1CC/C(COC(=O)c1cc3cc(OC)ccc3[nH]1)=C\CC[C@@]1(C)O[C@@H]21
-50.8% (active)

Given the entry CSc1nc(NCc2ccccc2)c(C#N)c(-c2cccc([N+](=O)[O-])c2)n1 , report its measured growth.
95.7% (inactive)

Given the compound CC(C)(CCCN=C(N)Nc1ccc(Cl)cc1)c1ccc(F)cc1 , what is its reported growth?
70.9% (inactive)

Any idea what its growth is? The compound is COc1ccc(CN2c3ccccc3Oc3ccccc32)cc1F
91.5% (inactive)

Fill blank: measured growth of the compound C=CC(=O)Nc1cccc(-c2nc(SC)nc(Nc3ccccc3OC)c2C#N)c1 is ____.
80% (inactive)

Which measured growth value corresponds to CC(=O)c1cc2c(N)c(C(=O)Nc3cccc(F)c3C)sc2nc1C ?
95.7% (inactive)

Bench note: what growth did C(=C\c1nccc2c1[nH]c1ccccc12)/c1ccccc1 show?
29.9% (inactive)

May I ask what growth has been recorded for c1ccc(Cn2cc(-c3nc4ccccc4s3)c3cccnc32)cc1 ?
101% (inactive)

Would you kindly share the measured growth for OC(COc1cccc2ccccc12)CN1CCN(c2ccccc2Cl)CC1 (stereo not drawn) ?
95.5% (inactive)

# get_value(readout='growth', item= C=C(C)[C@@H]1CC[C@]2(C(=O)OC)CC[C@]3(C)[C@H](CC[C@@H]4[C@@]5(C)C/C(=C/c6cccc(I)c6)C(=O)C(C)(C)[C@@H]5CC[C@]43C)[C@@H]12 )
97.3% (inactive)
